System: barnyardgrass (Echinochloa crus-galli)
experiment.summary: Test A pre-/postemergence plant response
Assay type: in vivo
condition.description: Preemergence, 500 g ai/ha; 0 to 100 scale, 0 = no effect, 100 = complete control
quantity.kind: Plant response rating, Barnyardgrass
Give bare numbers.

Recorded Plant response rating, Barnyardgrass, per entry:
>>> test_value("O=C1CCCC(O)=C1C(=O)c1cnc(-c2cccc(F)c2)n(CCC(F)(F)F)c1=O")
80
>>> test_value("O=C1CCCC(O)=C1C(=O)c1cnc(-c2ccc(F)cc2)n(C2CCCCC2)c1=O")
40

Please look at the items below and tell me Plant response rating, Barnyardgrass for each one, in order.
1. CC1(C)CC(=O)C(C(=O)c2cnc(-c3ccccc3)n(-c3ccccc3)c2=O)=C(O)C1
2. CCCn1c(-c2cccc(Cl)c2)ncc(C(=O)C2=C(O)CCCC2=O)c1=O

Solution:
90
100

====

For each record, write down the corresponding Wheat plant response rating.
Test system: wheat (Triticum aestivum)
experiment.summary: Test A pre-/postemergence plant response
Format: in vivo
condition.description: Postemergence, 500 g ai/ha; visual injury, 0 to 100 scale (0 no effect, 100 complete control), approx. ten days

# example entries with known answers
>>> test_value("COCCn1c(-c2cccc(F)c2)ncc(C(=O)C2=C(O)C3CCC(C3)C2=O)c1=O (centres unmarked)")
80
>>> test_value("Cc1cccc(-c2ncc(C(=O)C3=C(O)CCCC3=O)c(=O)n2C2CCCCC2)c1")
0
>>> test_value("Cc1ccc(-n2c(-c3cccc(F)c3)ncc(C(=O)C3=C(O)CCCC3=O)c2=O)cc1")
50

Give measured Wheat plant response rating for every item shown.
1. CCCCn1c(-c2cccc(F)c2)ncc(C(=O)C2=C(O)C3CCC(C3)C2=O)c1=O (centres unmarked)
2. COc1ccc(-n2c(-c3ccccc3)ncc(C(=O)C3=C(O)CCCC3=O)c2=O)c(OC)c1
3. O=C1CCCC(O)=C1C(=O)c1cnc(-c2cc(F)cc(F)c2)n(-c2ccccc2)c1=O
4. O=C(C1=C(O)C2CCC(C2)C1=O)c1cnc(-c2ccccc2)n(C2CCCCC2)c1=O (centres unmarked)
5. COCCCn1c(-c2cccc(F)c2)ncc(C(=O)C2=C(O)C3CCC(C3)C2=O)c1=O (centres unmarked)
6. C=CCCn1c(-c2ccccc2)ncc(C(=O)C2=C(O)CCCC2=O)c1=O
7. Cc1cc(F)ccc1-n1c(-c2cccc(Br)c2)ncc(C(=O)C2=C(O)CCCC2=O)c1=O

Solution:
1: 70; 2: 0; 3: 0; 4: 0; 5: 80; 6: 20; 7: 0

Problem: Which Wheat plant response rating value belongs to CCc1ccc(-n2c(-c3cc(F)cc(F)c3)ncc(C(=O)C3=C(O)CCCC3=O)c2=O)cc1 ?
Solution: 50

====

Please respond with reported Plant response rating, Surinam Grass for every item in the list.
Test system: Surinam grass (Brachiaria decumbens)
experiment.summary: Test B pre-/postemergence plant response
Type: in vivo
condition.description: Postemergence, 250 g ai/ha; scale 0 to 100 (0 no effect, 100 complete control)
Excerpt: […] Treated plants and controls were maintained in a greenhouse for 13 to 15 days, after which time all treated plants were visually evaluated and compared to controls. […]
One number for each entry.

>>> test_value("CCCCCn1c(-c2ccccc2)ncc(C(=O)C2=C(O)CCCC2=O)c1=O [Compound 89]")
95
>>> test_value("O=C1CCCC(O)=C1C(=O)c1cnc(-c2ccccc2Br)n(-c2ccccc2)c1=O [Compound 71]")
85
>>> test_value("CCCn1c(-c2cccs2)ncc(C(=O)C2=C(O)CCCC2=O)c1=O [Compound 77]")
80
>>> test_value("CCCCn1c(-c2ccccc2)ncc(C(=O)C2=C(O)CCCC2=O)c1=O [Compound 86]")
100

// next entry
Problem: Entry COCCCn1c(-c2cccc(C)c2)ncc(C(=O)C2=C(O)CCCC2=O)c1=O [Compound 118] : reported Plant response rating, Surinam Grass = ?
Solution: 90

====

Please provide measured Plant response rating, Flood, Barnyardgrass for the entries that follow.
Test system: barnyardgrass (Echinochloa crus-galli)
experiment.summary: Test B flooded paddy test
Type: in vivo
condition.description: 250 g ai/ha; flooded paddy test; visual rating on 0 to 100 scale (0 no effect, 100 complete control) after 13 to 15 days
Numbers only.

Example entries begin here.
>>> test_value("CCn1ncc(C(=O)c2cnc(-c3ccccc3)n(-c3ccccc3)c2=O)c1OS(=O)(=O)c1ccc(C)cc1")
10
>>> test_value("O=C1CCCC(O)=C1C(=O)c1cnc(-c2ccccc2)n(-c2cccc(Br)c2)c1=O")
0
>>> test_value("CCCn1c(-c2cccc(Cl)c2)ncc(C(=O)C2=C(O)CCCC2=O)c1=O")
30
>>> test_value("O=C(C1=C(O)C2CCC(C2)C1=O)c1cnc(-c2ccsc2)n(CC2CCCO2)c1=O (centres unmarked)")
30

Give one value of Plant response rating, Flood, Barnyardgrass per listed molecule.
1. CCCCn1c(-c2ccccc2)ncc(C(=O)C2=C(O)CCCC2=O)c1=O
2. Cc1cccc(Cl)c1-n1c(-c2ccccc2)ncc(C(=O)C2=C(O)CCCC2=O)c1=O

Solution:
[60, 0]

Record Plant response rating, Flood, Barnyardgrass for all entries; do not skip any.
1. CCCCn1c(-c2cccc(F)c2)ncc(C(=O)C2=C(O)CCCC2=O)c1=O
2. CCCc1ncc(C(=O)C2=C(O)CCCC2=O)c(=O)n1Cc1ccc(OC)c(OC)c1

Solution:
[60, 0]

====

Tested on: wild oat (Avena fatua)
experiment.summary: Test B pre-/postemergence plant response
Format: in vivo
condition.description: Postemergence, 62 g ai/ha; scale 0 to 100 (0 no effect, 100 complete control)
quantity.kind: Plant response rating, Oat, Wild

>>> test_value("COCCn1c(-c2cccc(F)c2)ncc(C(=O)C2=C(O)C3CCC(C3)C2=O)c1=O (centres unmarked)")
50

Go through the items and report each one's Plant response rating, Oat, Wild.
1. COc1ccc(-n2c(-c3ccccc3)ncc(C(=O)C3=C(O)CCCC3=O)c2=O)cc1OC
2. COCCCn1c(-c2cccc(F)c2)ncc(C(=O)C2=C(O)C3CCC(C3)C2=O)c1=O (centres unmarked)
3. CCn1c(-c2ccccc2)ncc(C(=O)C2=C(O)C3CCC(C3)C2=O)c1=O (centres unmarked)
4. CCCCn1c(-c2cc(F)cc(F)c2)ncc(C(=O)C2=C(O)C3CCC(C3)C2=O)c1=O (centres unmarked)

Solution:
45
35
5
85

====

Test system: ragweed (common ragweed, Ambrosia elatior)
experiment.summary: Test B pre-/postemergence plant response
Assay type: in vivo
condition.description: Preemergence, 31 g ai/ha; scale 0 to 100 (0 no effect, 100 complete control)
What Plant response rating, Ragweed was measured for each of the following?
Give bare numbers.

>>> test_value("Cc1cc(-n2c(-c3ccccc3)ncc(C(=O)C3=C(O)CCCC3=O)c2=O)ccc1F [Compound 53]")
65
>>> test_value("COCCn1c(-c2cc(F)cc(F)c2)ncc(C(=O)C2=C(O)CCCC2=O)c1=O [Compound 119]")
80

Can you give me Plant response rating, Ragweed for all of these, one by one?
1. O=C1CCCC(O)=C1C(=O)c1cnc(-c2ccccc2)n(CC2CCCO2)c1=O (stereo not shown) [Compound 59]
2. Cc1ccccc1-n1c(-c2ccccc2)ncc(C(=O)C2=C(O)CCCC2=O)c1=O [Compound 12]

Solution:
75
90

====

Tested on: downy bromegrass (Bromus tectorum)
experiment.summary: Test B pre-/postemergence plant response
Type: in vivo
condition.description: Postemergence, 250 g ai/ha; scale 0 to 100 (0 no effect, 100 complete control); 13 to 15 days
quantity.kind: Plant response rating, Bromegrass, Downy
Numbers only.

Examples from the recorded data:
>>> test_value("COCCCn1c(-c2cccc(F)c2)ncc(C(=O)C2=C(O)C3CCC(C3)C2=O)c1=O (stereo not shown) [Compound 238]")
85
>>> test_value("COCCn1c(-c2ccsc2)ncc(C(=O)C2=C(O)C3CCC(C3)C2=O)c1=O (stereo not shown) [Compound 228]")
10
>>> test_value("O=C1CCCC(O)=C1C(=O)c1cnc(-c2cccc(F)c2)n(C2CCCCC2)c1=O [Compound 187]")
40

Problem: I'd like to know its Plant response rating, Bromegrass, Downy. The compound in question is CCc1ccccc1-n1c(-c2ccccc2)ncc(C(=O)C2=C(O)CCCC2=O)c1=O [Compound 255]
Solution: 85

====

Test system: yellow nutsedge (Cyperus esculentus)
experiment.summary: Test B pre-/postemergence plant response
Format: in vivo
condition.description: Postemergence, 125 g ai/ha; scale 0 to 100 (0 no effect, 100 complete control)
From the text: […] Treated plants and controls were maintained in a greenhouse for 13 to 15 days, after which time all treated plants were visually evaluated and compared to controls. […]
I'd appreciate it if you marked entries Yes when Plant response rating, Nutsedge, Yellow is lower than 60 and No when it is not.

Solved cases below.
>>> group("COCCn1c(-c2cccc(C)c2)ncc(C(=O)C2=C(O)C3CCC(C3)C2=O)c1=O (centres unmarked)")
"Yes"
>>> group("CCCn1c(-c2cc(F)cc(F)c2)ncc(C(=O)C2=C(O)CCCC2=O)c1=O")
"No"
>>> group("Cc1cc(-n2c(-c3cccc(F)c3)ncc(C(=O)C3=C(O)CCCC3=O)c2=O)ccc1F")
"Yes"
>>> group("O=C1CCCC(O)=C1C(=O)c1cnc(-c2ccc(F)cc2)n(C2CCCCC2)c1=O")
"No"

Problem: API: query returns whether the molecule falls strictly under 60 in Plant response rating, Nutsedge, Yellow. Query: CCc1ccc(-n2c(-c3ccccc3)ncc(C(=O)C3=C(O)CCCC3=O)c2=O)cc1
Solution: No

Problem: Next up: O=C1CCCC(O)=C1C(=O)c1cnc(-c2cccs2)n(C2CCCCC2)c1=O
Solution: Yes

Problem: Now give it for Cc1ccc(F)cc1-n1c(-c2cccc(Cl)c2)ncc(C(=O)C2=C(O)CCCC2=O)c1=O too.
Solution: Yes
